- Test Target: human recombinant 15-PGDH (Homo sapiens)
- Experiment: Recombinant 15-PGDH enzymatic inhibition assay (PGDH-Lumi, NADH signal)
- Run Parameters: recombinant 15-PGDH; 15 min pre-incubation, 60 min reaction with PGE2 and NAD+, NADH signal
- Method: These assays measured 15-PGDH enzymatic activity by quantifying the amount of NADH produced during a 60-minute reaction initiated by the addition of PGE2 and NAD+. Under the conditions of these experiments, the increase of NADH signal upon oxidation of PGE2 and reduction of NAD+ was linearly proportional to 15-PGDH enzymatic activity. […] After 60 minutes at room temperature, the reaction was quenched and NADH signal was measured using a microtiter plate reader. […]
pIC50: −log10 of the molar value.
Assay Readout: pIC50

Solved cases below.
- Compound: "Cn1cc2cc(-c3ccc4cc([C@]5(O)C[C@@H](C(F)(F)F)C5)sc4n3)cnc2n1 [Compound C29C]"
  Test Target: "human recombinant 15-PGDH (Homo sapiens)"
  pIC50: 9.52
- Compound: "Cn1cc2cc(-c3ccc4sc([C@@H](O)C5CC(F)(F)C5)cc4n3)cnc2n1 (single isomer, unassigned) [Compound B73S]"
  Test Target: "human recombinant 15-PGDH (Homo sapiens)"
  pIC50: 9.10
- Compound: "Cc1nc2ncc(-c3ccc4cc(C5(O)CC(F)(F)C5)sc4n3)cc2o1"
  Test Target: "human recombinant 15-PGDH (Homo sapiens)"
  pIC50: 9.11

[A] CO[C@]1(C)C[C@](O)(c2cc3cnc(-c4cnc5nn(C)cc5c4)nc3s2)C1 (single isomer, unassigned) [Compound C118T]
[B] CCn1cc2cc(-c3ccc4cc([C@@H](O)C5CC(F)(F)C5)sc4n3)cnc2n1 (single isomer, unassigned) [Compound B53S]
[C] Cn1cc2cc(-c3cc(-c4ccnn4C)nc4sc(C(O)C5CCC5)cc34)cnc2n1 (stereo not shown)
[D] Cn1cc2cc(-c3ccc4cc([C@@H](O)C56CC(C(F)(F)F)(C5)C6)sc4n3)cnc2n1 (single isomer, unassigned) [Compound B91S]
Q. Ordering: ascending pIC50. Respond with an ordered listing of the labels, as requested.
A. C, D, A, B

###

- Test Target: human recombinant 15-PGDH (Homo sapiens, UniProt P15428)
- Experiment: Recombinant 15-PGDH enzymatic inhibition assay (PGDH-Lumi, NADH signal)
- Format: biochemical
- Run Parameters: recombinant 15-PGDH; 15 min pre-incubation, 60 min reaction with PGE2 and NAD+, NADH signal
Assay Readout: IC50 (nM)

- Compound: "O[C@]1(c2cc3ccc(-c4cnc5[nH]nnc5c4)nc3s2)C[C@H](C(F)F)C1 [Compound C103C]"
  IC50, nM: 0.302

[1] [2H][C@@](O)(c1cc2ccc(-c3cnc4nn(C)cc4c3)nc2s1)C1CCOCC1 (single isomer, unassigned) [Compound B66S]
[2] CO[C@H]1CC[C@@]1(O)c1cc2ccc(-c3cnc4nn(C)cc4c3)nc2s1 (single isomer, unassigned) [Compound C70SS]
[3] Cc1nc2ccc(-c3ccc4cc([C@@H](O)C5CC(F)(F)C5)sc4n3)cc2o1 (single isomer, unassigned) [Compound B51S]
Q. Ordering: ascending IC50. Respond with an ordered listing of the labels, as requested.
A. 3, 1, 2

###

- Test Target: 15-PGDH in A549 cells (Homo sapiens, UniProt P15428)
- Construct: endogenous in cells
- Sequence (P15428 1-266): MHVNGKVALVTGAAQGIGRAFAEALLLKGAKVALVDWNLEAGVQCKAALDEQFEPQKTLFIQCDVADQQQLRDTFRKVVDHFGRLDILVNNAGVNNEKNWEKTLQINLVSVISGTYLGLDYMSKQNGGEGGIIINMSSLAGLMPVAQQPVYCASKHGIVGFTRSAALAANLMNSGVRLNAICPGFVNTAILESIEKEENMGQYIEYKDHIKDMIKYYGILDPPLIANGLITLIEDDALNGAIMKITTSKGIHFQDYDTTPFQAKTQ
- Experiment: A549 cellular 15-PGDH assay (PGE2 accumulation, HTRF)
- Run Parameters: interleukin-stimulated, inhibitor 24 hrs, PGE2 by competitive HTRF, read-out: A549 Cell Assay IC50
pIC50: −log10 of the molar value.
Assay Readout: pIC50

- Molecule: "COCCC(O)c1cc2ccc(-c3cnc4nn(C)cc4c3)nc2s1 (stereo not shown)"
  pIC50: 8.98
- Molecule: "Cn1cc2cc(-c3ccc4c(N)c([C@H](O)C5CC(F)(F)C5)sc4n3)cnc2n1 (single isomer, unassigned) [Compound B95R]"
  pIC50: 8.79
- Molecule: "Cn1cc2cc(-c3ccc4cc(C5(O)CC(F)(F)C5)sc4n3)cnc2n1"
  pIC50: 8.77
- Molecule: "Cc1nc2cc(-c3ccc4cc(C5(O)CC(F)(F)C5)sc4n3)cnc2[nH]1"
  pIC50: 8.87
